experiment: Toxicokinetics in the 7-day repeated intragastric administration study in SD rats; type: in vivo, Sprague-Dawley (SD) rats; conditions: Sprague-Dawley, rat, plasma, po, 60 mg/kg intragastric, after the first administration, male, read-out: average system exposure AUC
Readout name: AUC

In [3]: df
Out[3]:
                                   compound     meas_value
0  C[C@H](Nc1ccc2c(c1)OCCn1cc(N3C(=O)OC[C@H]3C(F)F)nc1-2)C(N)=O [GDC-0077, reference compound]  15400 ng·h/mL

----------
test: Pharmacokinetic (PK) assay in mice; type: in vivo; conditions: male, Balb/c, mouse, plasma, po, single intragastric 5 mg/kg, read-out: Half-life t1/2(h) (converted)
Here the recorded half-life is given for each entry.
Readout name: half-life

                           structure_string  meas_value
0  C[C@@H](C(N)=O)N(C)c1ccc2c(c1)OCCn1cc(N3C(=O)OC[C@H]3C(F)F)nc1-2         1 h
1  C[C@H](Nc1ccc2c(c1)OCCn1cc(N3C(=O)N(C)C[C@H]3C(F)F)nc1-2)C(N)=O       0.8 h
2  COC[C@H](Nc1ccc2c(c1)OCCn1cc(N3C(=O)SC[C@H]3C(F)F)nc1-2)C(N)=O       2.8 h

----------
biological target: PI3Kγ (Homo sapiens)
Sequence (P48736 whole entry): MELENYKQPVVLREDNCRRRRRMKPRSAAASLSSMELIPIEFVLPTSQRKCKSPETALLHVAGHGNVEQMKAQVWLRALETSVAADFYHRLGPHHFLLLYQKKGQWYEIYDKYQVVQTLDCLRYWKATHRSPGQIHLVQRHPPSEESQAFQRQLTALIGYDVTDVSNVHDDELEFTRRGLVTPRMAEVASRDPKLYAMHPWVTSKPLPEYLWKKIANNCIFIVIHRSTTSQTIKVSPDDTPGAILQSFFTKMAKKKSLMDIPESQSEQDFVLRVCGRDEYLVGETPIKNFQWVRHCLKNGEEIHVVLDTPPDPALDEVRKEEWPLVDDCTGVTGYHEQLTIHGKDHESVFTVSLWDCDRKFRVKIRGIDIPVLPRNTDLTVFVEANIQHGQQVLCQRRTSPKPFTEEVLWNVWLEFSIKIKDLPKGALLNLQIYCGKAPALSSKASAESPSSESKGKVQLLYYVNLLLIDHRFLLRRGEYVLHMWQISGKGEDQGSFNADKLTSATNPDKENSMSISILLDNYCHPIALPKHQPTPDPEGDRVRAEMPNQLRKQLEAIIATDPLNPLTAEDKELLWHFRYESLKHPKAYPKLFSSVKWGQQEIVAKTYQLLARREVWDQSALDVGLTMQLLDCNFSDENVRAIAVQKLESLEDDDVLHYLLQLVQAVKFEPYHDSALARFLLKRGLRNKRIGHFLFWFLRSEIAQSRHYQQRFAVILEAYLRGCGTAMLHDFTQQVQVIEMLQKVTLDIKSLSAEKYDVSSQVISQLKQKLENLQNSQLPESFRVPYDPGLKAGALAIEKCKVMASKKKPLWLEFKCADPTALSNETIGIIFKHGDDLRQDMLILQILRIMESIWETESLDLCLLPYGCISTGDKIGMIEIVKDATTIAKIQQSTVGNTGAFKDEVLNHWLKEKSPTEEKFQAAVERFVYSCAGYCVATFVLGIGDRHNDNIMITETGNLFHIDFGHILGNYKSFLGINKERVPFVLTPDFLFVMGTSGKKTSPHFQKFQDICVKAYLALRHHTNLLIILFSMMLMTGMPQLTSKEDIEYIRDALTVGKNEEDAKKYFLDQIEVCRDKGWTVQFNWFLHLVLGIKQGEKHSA
Readout name: IC50 (nM)

>>> print(df.to_string())
                           structure_string  meas_value
0  COC[C@H](Nc1ccc2c(c1)OCCn1cc(N3C(=O)SC[C@H]3C(F)F)nc1-2)C(N)=O         376
1  C[C@H](Nc1cc(F)c2c(c1)OCCn1cc(N3C(=O)OC[C@H]3C(F)F)nc1-2)C(N)=O         510
2  COC[C@H](Nc1ccc2c(c1F)OCCn1cc(N3C(=O)SC[C@H]3C(F)F)nc1-2)C(N)=O        1150
3  C[C@H](Nc1ccc2c(c1)OCCn1cc(N3C(=O)CN(C)C[C@H]3C(F)F)nc1-2)C(N)=O         332
4  C[C@H](Nc1ccc2c(c1)OCCn1cc(N3C(=O)SC[C@H]3CC#N)nc1-2)C(N)=O         116
5  C[C@H](Nc1ccc2c(c1)OCCn1cc(N3C(=O)SC[C@H]3C(F)F)nc1-2)C(N)=O          90
6  C[C@H](Nc1ccc2c(c1F)OCCn1cc(N3C(=O)OC[C@H]3C(F)F)nc1-2)C(N)=O         450
7  NC(=O)[C@@H]1CCCN1c1ccc2c(c1)OCCn1cc(N3C(=O)SC[C@H]3C(F)F)nc1-2         736

----------
assay: Pharmacokinetic (PK) assay in mice; format: in vivo; conditions: male, Balb/c, mouse, plasma, po, single intragastric 5 mg/kg, read-out: Mean residence time MRT
Readout name: MRT (h)

>>> df
                           structure_string  meas_value
0  C[C@@H](C(N)=O)N(C)c1ccc2c(c1)OCCn1cc(N3C(=O)OC[C@H]3C(F)F)nc1-2         1.8
1  C[C@H](Nc1ccc2c(c1F)OCCn1cc(N3C(=O)OC[C@H]3C(F)F)nc1-2)C(N)=O         1.7
2  COC[C@H](Nc1ccc2c(c1)OCCn1cc(N3C(=O)OC[C@H]3C(F)F)nc1-2)C(N)=O         1.6
3  C[C@H](Nc1ccc2c(c1F)OCCn1cc(N3C(=O)SC[C@H]3C(F)F)nc1-2)C(N)=O         3.4
4  C[C@H](Nc1ccc2c(c1)OCCn1cc(N3C(=O)SC[C@H]3C(F)F)nc1-2)C(N)=O         2.2
5  C[C@H](Nc1ccc2c(c1)OCCn1cc(N3C(=O)O[C@H](C)[C@H]3C(F)F)nc1-2)C(N)=O           2
6  NC(=O)[C@@H]1CCCN1c1ccc2c(c1)OCCn1cc(N3C(=O)SC[C@H]3C(F)F)nc1-2         3.9
7  COC[C@H](Nc1ccc2c(c1)OCCn1cc(N3C(=O)SC[C@H]3C(F)F)nc1-2)C(N)=O         3.7
8  C[C@H](Nc1ccc2c(c1)OCCn1cc(N3C(=O)COC[C@H]3C(F)F)nc1-2)C(N)=O         1.8
9  C[C@H](Nc1ccc2c(c1)OCCn1cc(N3C(=O)N(C)C[C@H]3C(F)F)nc1-2)C(N)=O         1.2
